Value source: the kinase profiling compilation of Christmann-Franck et al. (2016)

# experimental_target: CDK9 CCNK (human) (UniProt O75909+P50750)
# Sequence (O75909 whole entry, looked up): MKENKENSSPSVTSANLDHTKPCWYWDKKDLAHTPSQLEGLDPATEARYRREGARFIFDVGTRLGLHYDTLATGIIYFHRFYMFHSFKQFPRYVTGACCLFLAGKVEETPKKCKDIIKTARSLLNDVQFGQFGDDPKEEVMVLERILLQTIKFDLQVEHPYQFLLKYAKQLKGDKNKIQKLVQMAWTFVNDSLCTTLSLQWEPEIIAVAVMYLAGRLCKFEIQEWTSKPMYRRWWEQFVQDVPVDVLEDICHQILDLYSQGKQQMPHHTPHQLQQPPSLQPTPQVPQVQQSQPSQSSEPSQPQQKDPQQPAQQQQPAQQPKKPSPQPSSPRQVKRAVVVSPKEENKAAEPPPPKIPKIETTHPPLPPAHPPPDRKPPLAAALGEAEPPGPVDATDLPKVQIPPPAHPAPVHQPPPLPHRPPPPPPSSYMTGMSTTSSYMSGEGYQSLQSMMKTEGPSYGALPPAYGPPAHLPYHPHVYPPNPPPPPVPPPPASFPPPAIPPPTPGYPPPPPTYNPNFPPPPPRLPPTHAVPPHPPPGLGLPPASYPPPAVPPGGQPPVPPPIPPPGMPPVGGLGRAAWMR
# Sequence (P50750 whole entry, looked up): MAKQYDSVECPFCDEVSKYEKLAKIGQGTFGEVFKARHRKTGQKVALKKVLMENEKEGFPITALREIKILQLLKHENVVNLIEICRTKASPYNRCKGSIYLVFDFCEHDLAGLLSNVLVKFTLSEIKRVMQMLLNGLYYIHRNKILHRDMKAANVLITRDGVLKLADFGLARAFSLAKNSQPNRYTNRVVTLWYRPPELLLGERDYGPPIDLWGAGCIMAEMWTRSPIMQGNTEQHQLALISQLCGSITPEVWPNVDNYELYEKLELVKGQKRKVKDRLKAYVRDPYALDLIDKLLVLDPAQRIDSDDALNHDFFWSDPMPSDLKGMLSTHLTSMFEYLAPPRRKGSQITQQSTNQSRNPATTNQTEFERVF
# experimental_details: radiometric filter-binding kinase assay, Kinase HotSpot
# condition_details: compound 0.5 µM; ATP 10 µM
Answer each item with its documented residual activity.
Give bare numbers, in %.

The examples below pair each entry with its known result.
[
  {
    "compound": "O=C1Cc2c([nH]c3ccc([N+](=O)[O-])cc23)-c2ccccc2N1",
    "metric": "residual activity",
    "experimental_value": 24.2
  },
  {
    "compound": "Oc1ccc(-c2nc(-c3ccc(F)cc3)c(-c3ccncc3)[nH]2)cc1",
    "metric": "residual activity",
    "experimental_value": 101
  },
  {
    "compound": "COc1cc2nccc(Oc3ccc(NC(=S)NC(=O)c4ccccc4C)cc3)c2cc1OC",
    "metric": "residual activity",
    "experimental_value": 108
  },
  {
    "compound": "O=c1cc(-c2cccc3c2Sc2ccccc2S3)oc(N2CCOCC2)c1",
    "metric": "residual activity",
    "experimental_value": 109
  },
  {
    "compound": "CCN1/C(=C/C(C)=O)Sc2ccc(OC)cc21",
    "metric": "residual activity",
    "experimental_value": 86.2
  },
  {
    "compound": "Nc1nc(Nc2ccc(S(N)(=O)=O)cc2)nn1C(=O)c1c(F)cccc1F",
    "metric": "residual activity",
    "experimental_value": 27.4
  },
  {
    "compound": "O=C(Nc1ccc(Cl)cc1)c1ccccc1NCc1ccncc1",
    "metric": "residual activity",
    "experimental_value": 95.5
  },
  {
    "compound": "CCCNC(=O)Nc1ccc(Oc2ncnc3cc(OC)c(OC)cc23)cc1Cl",
    "metric": "residual activity",
    "experimental_value": 103
  }
]

Parameters: items (list). Returns: residual activity for each item.
1. Nc1n[nH]c2nnc(-c3c(-c4ccccc4)nn4ccccc34)cc12
2. Nc1nc(Nc2ccc(S(N)(=O)=O)cc2)nn1C(=S)Nc1c(F)cccc1F
3. COc1cc2ncnc(Nc3ccc(F)c(Cl)c3)c2cc1OCCCN1CCOCC1
4. Cc1cc(Nc2cc(N3CCN(C)CC3)nc(Sc3ccc(NC(=O)C4CC4)cc3)n2)[nH]n1

OUTPUT:
[98.5, 7.46, 99.3, 102]
